Test system: morningglory
Test: Test B pre/postemergence morningglory
Assay type: in vivo, Ipomoea hederacea
Details: Rate 125 g/ha, Postemergence; scale of 0 to 10 where 0 is no effect and 10 is complete control
# maps each entry to its Morningglory plant response rating
Lab note: jot down the number only; don't add units.

Below, each entry is followed by its recorded Morningglory plant response rating result.
| structure.string | measured.on | Morningglory plant response rating |
| --- | --- | --- |
| CC(C)N(C(=O)n1oc(=O)n(C[Si](C)(C)C)c1=O)c1ccc(F)cc1 | morningglory | 6 |
| CC(C)N(C(=O)n1oc(=O)n(C2CCCC2)c1=O)c1ccccc1 | morningglory | 9 |
| CC(C)N(C(=O)n1oc(=O)n(Cc2nnsc2Cl)c1=O)c1ccccc1 | morningglory | 7 |
| Cc1ccccc1-n1c(=O)on(C(=O)N(c2ccc3c(c2)CCC3)C(C)C)c1=O | morningglory | 3 |

Now consider a different compound.
Specify Morningglory plant response rating for COCn1c(=O)on(C(=O)N(c2ccc(F)cc2)C(C)C)c1=O , system morningglory.
5

###

Tested on: morningglory
Assay: Test B pre/postemergence morningglory
Assay type: in vivo, Ipomoea hederacea
Conditions: Postemergence, Rate 62 g/ha; scale 0 to 10, 0 is no effect, 10 is complete control
result.type: Plant response rating, Morningglory
Answer with a bare number; do not write a unit.

For orientation, consider the following solved cases.
| molecule | measured.value |
| --- | --- |
| C=C(Cn1c(=O)on(C(=O)N(c2ccccc2)C(C)C)c1=O)c1ccc(F)cc1 | 6 |
| CC(C)N(C(=O)n1oc(=O)n(CCF)c1=O)c1ccc(Cl)cc1 | 1 |
| COC1CCC(Cn2c(=O)on(C(=O)N(c3ccc(Cl)cc3)C(C)C)c2=O)=NO1 (stereo not shown) | 3 |

Consider the record given below.
Supply reported Plant response rating, Morningglory belonging to this molecule: CCCCn1c(=O)on(C(=O)N(c2ccc(F)cc2F)C(C)C)c1=O
1

###

Test system: corn
Test: Test B pre/postemergence corn
Type: in vivo, Zea mays
Settings: Postemergence, Rate 62 g/ha; scale 0 to 10, 0 is no effect, 10 is complete control
result.type: Plant response rating, Corn

// worked examples, Plant response rating, Corn included
| compound | Plant response rating, Corn |
| --- | --- |
| CC(C)N(C(=O)n1oc(=O)n(CC2=NOCCC2)c1=O)c1ccc(F)cc1F | 0 |
| CCOC(CC)n1c(=O)on(C(=O)N(c2ccc(F)cc2F)C(C)C)c1=O (centres unmarked) | 0 |
| COC1CCC(Cn2c(=O)on(C(=O)N(c3ccc(Cl)cc3)C(C)C)c2=O)=NO1 (centres unmarked) | 0 |

Give the value of Plant response rating, Corn reported for the following: CC(C)N(C(=O)n1oc(=O)n(CCF)c1=O)c1ccc(F)cc1F
3

Please give the documented Plant response rating, Corn of CC(C)N(C(=O)n1oc(=O)n(CC(=O)C2CC2)c1=O)c1ccc(Cl)cc1
0

###

// Giant foxtail plant response rating lookup, one value per entry
Test system: giant foxtail
Assay: Test B pre/postemergence giant foxtail
Assay type: in vivo, Setaria faberii
Conditions: Preemergence, Rate 250 g/ha; scale of 0 to 10 where 0 is no effect and 10 is complete control
# respond with the number and nothing more

Here is how some compounds turned out for Giant foxtail plant response rating.
| compound | Giant foxtail plant response rating |
| --- | --- |
| Cc1cccc(C(C)(C)C)c1-n1c(=O)on(C(=O)N(c2ccc(F)cc2)C(C)C)c1=O | 0 |
| CC(C)N(C(=O)n1oc(=O)n(C2CCCO2)c1=O)c1ccc(F)cc1 (centres unmarked) | 0 |
| CCOCn1c(=O)on(C(=O)N(c2ccc(F)cc2)C(C)C)c1=O | 10 |
| CC(C)N(C(=O)n1oc(=O)n(CC(=O)C(C)(C)C)c1=O)c1ccc(F)cc1 | 7 |
| CC(C)N(C(=O)n1oc(=O)n(Cc2nnsc2Cl)c1=O)c1ccccc1 | 9 |

Read off the recorded Giant foxtail plant response rating for Cc1cccc(C)c1-n1c(=O)on(C(=O)N(C(C)C)C2C=CCCC2)c1=O (centres unmarked)
8

State, in one line, measured Giant foxtail plant response rating of CC(C)N(C(=O)n1oc(=O)n([C@H](C)c2ccccc2)c1=O)c1ccc(F)cc1F
10

Given the compound CCCCc1ccc(N(C(=O)n2oc(=O)n(-c3ccccc3C)c2=O)C(C)C)cc1 , write its reported Giant foxtail plant response rating.
0

Hello, the source for this data is patent US6737383B1, in case you need it.
